Assay System: Cysteine protease ATG4B (Homo sapiens);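 also: Fluorescence-based dose-response confirmation assay measuring inhibition of ATG4B activity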
Sequence (Q9Y4P1 whole entry): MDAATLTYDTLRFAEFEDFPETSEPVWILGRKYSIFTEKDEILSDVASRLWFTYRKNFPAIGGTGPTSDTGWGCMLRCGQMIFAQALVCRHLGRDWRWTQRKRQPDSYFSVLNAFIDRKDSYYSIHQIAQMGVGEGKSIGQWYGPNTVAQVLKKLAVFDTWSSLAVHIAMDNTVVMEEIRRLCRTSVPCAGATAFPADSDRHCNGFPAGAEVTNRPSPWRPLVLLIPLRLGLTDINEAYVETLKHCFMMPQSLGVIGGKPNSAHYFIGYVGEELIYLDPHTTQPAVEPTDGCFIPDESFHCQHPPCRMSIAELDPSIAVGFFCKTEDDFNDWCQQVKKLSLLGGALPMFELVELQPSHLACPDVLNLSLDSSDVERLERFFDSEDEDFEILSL
Type: functional
The source made the active and inactive calls.
Pick from Yes = active, No = inactive when you respond.

[ask] Could you check what this test reported for O=C(O)COc1ccccc1/C=C1\SC(=S)N(/N=C/c2ccccc2O)C1=O ?
[reply] No

[ask] Could you check what this test reported for CC(C)C(Sc1nc(-c2ccccc2)cc(-c2ccccc2)c1C#N)C(=O)O (centres undefined) ?
[reply] Yes

[ask] Could you check what this test reported for COc1ccc(-c2n[nH]c(C(F)(F)F)c2-c2cc3ccccc3o2)c(O)c1 ?
[reply] Yes

[ask] Could you check what this test reported for O=C(Oc1c(-c2ccccc2)c(=O)n2c3c(cccc13)CC2)c1ccc(F)cc1 ?
[reply] Yes

====

Assay System: 26S proteasome non-ATPase regulatory subunit 14 (Homo sapiens)
Sequence (O00487 whole entry): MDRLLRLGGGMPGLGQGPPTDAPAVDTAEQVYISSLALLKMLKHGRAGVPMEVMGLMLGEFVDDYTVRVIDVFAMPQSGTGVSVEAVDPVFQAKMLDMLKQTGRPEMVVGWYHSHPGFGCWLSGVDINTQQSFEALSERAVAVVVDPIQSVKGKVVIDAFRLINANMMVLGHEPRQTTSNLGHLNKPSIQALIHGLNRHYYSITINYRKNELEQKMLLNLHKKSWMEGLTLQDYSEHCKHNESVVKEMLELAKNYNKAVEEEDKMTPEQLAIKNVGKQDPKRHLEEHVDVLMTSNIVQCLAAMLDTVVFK
Assay Comment: inhibition of proteasome subunit RPN11 – biochemical, fluorescence polarization, uHTS hits, confirmation (AID 602368)
Assay type: functional
Activity calls are given as the source filed them.
Quantity Name: IC50

| Smiles Entry | IC50 |
| --- | --- |
| O=C(N/N=C/c1cccnc1)c1ccc(NC(=O)c2cccc(Cl)c2)cc1 | 22.7 µM (active) |

[ask] Please look at this molecule and report its IC50: C#CCOCCOCCOCCNc1nc(N2CCN(C(=O)CCCCCCCCCCNC(=O)[C@H](CCCCN)n3cc(C[C@@H](C)CC)nn3)CC2)nc(N2CCN(C(=O)CCCCCCCCCCNC(=O)[C@H](CCCCN)n3cc(C[C@@H](C)CC)nn3)CC2)n1
[reply] 16.2 µM (active)

[ask] Please look at this molecule and report its IC50: CCOC(=O)C1=C(Nc2ccc(OC)cc2)S/C(=C\c2ccc(-c3ccccc3C(=O)O)o2)C1=O
[reply] 17.8 µM (active)

[ask] Please look at this molecule and report its IC50: CCc1ccccc1OCC(=O)Nc1ccc(N2CCCC2)cc1C
[reply] 46.2 µM (active)

====

Assay System: UniProt:O00482
Sequence (O00482 whole entry): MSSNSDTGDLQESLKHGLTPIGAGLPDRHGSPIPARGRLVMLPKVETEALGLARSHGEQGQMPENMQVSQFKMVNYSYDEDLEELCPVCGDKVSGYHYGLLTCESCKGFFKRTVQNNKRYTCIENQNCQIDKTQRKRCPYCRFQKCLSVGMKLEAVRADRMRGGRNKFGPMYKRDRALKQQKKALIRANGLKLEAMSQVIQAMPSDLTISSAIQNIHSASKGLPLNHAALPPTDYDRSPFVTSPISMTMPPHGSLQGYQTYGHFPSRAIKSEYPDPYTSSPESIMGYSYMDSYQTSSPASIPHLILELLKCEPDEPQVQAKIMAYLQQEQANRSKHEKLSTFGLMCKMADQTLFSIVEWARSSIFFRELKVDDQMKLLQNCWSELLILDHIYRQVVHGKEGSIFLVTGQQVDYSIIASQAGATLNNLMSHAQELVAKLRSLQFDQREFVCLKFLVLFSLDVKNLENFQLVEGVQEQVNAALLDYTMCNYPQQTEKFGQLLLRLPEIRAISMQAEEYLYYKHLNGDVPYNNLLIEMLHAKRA
Type: functional, cell-based
The source made the active and inactive calls.
Pick from active, inactive when you respond.

Use the examples below as a reference point.
| Compound | Assay System | Group Label |
| --- | --- | --- |
| CCOc1ccc(NC(=O)CSc2nncc(O)n2)cc1 | UniProt:O00482 | active |
| COCCNc1ccc([N+](=O)[O-])cc1C(=O)NC1CCCc2ccccc21 (centres undefined) | UniProt:O00482 | active |
| Cc1no[n+]([O-])c1COc1ccccc1/C=N/n1nnnc1N | UniProt:O00482 | inactive |

[ask] Could you check what this test reported for CC1CCCN(c2cc(N(C)CCO)c([N+](=O)[O-])c3nonc23)C1 (centres undefined) ?
[reply] inactive

====

Assay System: Prothrombin (Bos taurus)
Assay Comment: thrombin inhibition, dose response, biochemical, fluorescence polarization, uHTS hits (AID 602369)
Type: functional
Activity calls are given as the source filed them.
Quantity Name: IC50

[ask] Please look at this compound and report its IC50: CCc1ccccc1OCC(=O)Nc1ccc(N2CCCC2)cc1C
[reply] 9.96 µM (active)

[ask] Please look at this compound and report its IC50: O=C(N/N=C/c1cccnc1)c1ccc(NC(=O)c2cccc(Cl)c2)cc1
[reply] > 100 µM (inactive)

[ask] Please look at this compound and report its IC50: C#CCOCCOCCOCCNc1nc(N2CCN(C(=O)CCCCCCCCCCNC(=O)[C@H](CCCCN)n3cc(C[C@@H](C)CC)nn3)CC2)nc(N2CCN(C(=O)CCCCCCCCCCNC(=O)[C@H](CCCCN)n3cc(C[C@@H](C)CC)nn3)CC2)n1
[reply] 24.5 µM (active)

[ask] Please look at this compound and report its IC50: CCOC(=O)C1=C(Nc2ccc(OC)cc2)S/C(=C\c2ccc(-c3ccccc3C(=O)O)o2)C1=O
[reply] 13.1 µM (active)

====

UniProtKB P11712: recorded AC50 for assorted molecules
Sequence (P11712 whole entry): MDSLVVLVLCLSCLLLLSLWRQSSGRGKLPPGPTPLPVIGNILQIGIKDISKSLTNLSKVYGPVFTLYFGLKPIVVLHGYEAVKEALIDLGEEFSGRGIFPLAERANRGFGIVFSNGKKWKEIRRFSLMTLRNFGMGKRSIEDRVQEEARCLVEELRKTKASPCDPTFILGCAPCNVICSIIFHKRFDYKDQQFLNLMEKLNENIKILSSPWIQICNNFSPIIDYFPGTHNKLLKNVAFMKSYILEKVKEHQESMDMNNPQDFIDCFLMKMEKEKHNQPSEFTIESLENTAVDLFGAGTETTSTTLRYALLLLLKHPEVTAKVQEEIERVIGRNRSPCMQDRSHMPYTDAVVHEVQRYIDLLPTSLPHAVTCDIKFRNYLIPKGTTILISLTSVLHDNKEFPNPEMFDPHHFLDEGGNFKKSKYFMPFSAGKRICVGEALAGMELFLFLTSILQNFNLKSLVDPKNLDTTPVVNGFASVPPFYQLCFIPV

Solved cases (2 shown):
| Molecule | AC50 |
| --- | --- |
| Cc1cccc(CNc2ccnc(-c3ccccc3C(F)(F)F)n2)c1 | 1.26 µM (inconclusive) |
| CCOc1ccc(OCC)c(NC(=O)C2CCCN(S(=O)(=O)c3cccs3)C2)c1 (stereo not given) | 2.51 µM (inconclusive) |

[ask] Please look at this molecule and report its AC50: O=C(Nc1cc(-c2nc3ccccc3s2)ccc1Cl)c1ccc2c(c1)OCO2
[reply] 1.78 µM (inconclusive)

[ask] Please look at this molecule and report its AC50: C=CCN1CCc2c(cc(O)c(O)c2Cl)[C@H](c2ccccc2)C1
[reply] 31.6 µM (inconclusive)

[ask] Please look at this molecule and report its AC50: CN1CCc2nc3ccc(F)cc3c(C(N)=O)c2C1
[reply] 17.8 µM (inconclusive)

[ask] Please look at this molecule and report its AC50: CC(=O)OCC1=C(C(=O)O)N2C(=O)[C@@H](NC(=O)CCC[C@@H](N)C(=O)O)[C@@H]2SC1
[reply] 39.8 µM (inconclusive)

[ask] Please look at this molecule and report its AC50: Cc1ccc(/C=C/c2nnc(-c3cccs3)o2)cc1
[reply] 10 µM (inconclusive)

[ask] Please look at this molecule and report its AC50: Cc1oc(-c2ccccc2F)nc1C[S+]([O-])CC(=O)N1CCC2(CC1)OCCO2 (stereo not given)
[reply] 20 µM (inconclusive)

[ask] Please look at this molecule and report its AC50: COc1cccc(-c2csc(N3CCN(C(=S)Nc4ccccc4)CC3)n2)c1
[reply] 0.158 µM (inconclusive)

[ask] Please look at this molecule and report its AC50: Cc1ccc(C(=O)N/N=C/c2nc3ccccc3n2C)cc1
[reply] 12.6 µM (inconclusive)

====

UniProt P05177: recorded AC50 for assorted molecules
Sequence (P05177 whole entry): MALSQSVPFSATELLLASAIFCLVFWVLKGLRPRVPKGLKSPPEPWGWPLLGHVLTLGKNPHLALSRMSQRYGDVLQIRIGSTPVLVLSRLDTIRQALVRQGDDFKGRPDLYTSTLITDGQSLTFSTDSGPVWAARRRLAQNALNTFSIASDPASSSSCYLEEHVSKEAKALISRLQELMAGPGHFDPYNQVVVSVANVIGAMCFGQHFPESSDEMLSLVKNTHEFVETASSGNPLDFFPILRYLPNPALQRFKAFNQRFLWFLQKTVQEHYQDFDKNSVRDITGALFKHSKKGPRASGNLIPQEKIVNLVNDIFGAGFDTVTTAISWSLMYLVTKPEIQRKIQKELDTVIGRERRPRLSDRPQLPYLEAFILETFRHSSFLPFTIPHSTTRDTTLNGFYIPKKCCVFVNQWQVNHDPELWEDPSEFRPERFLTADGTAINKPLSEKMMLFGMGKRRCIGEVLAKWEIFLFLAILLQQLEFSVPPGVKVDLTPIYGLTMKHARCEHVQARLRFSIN

| Molecule | AC50 |
| --- | --- |
| CCCC(=O)Nc1ccc(C(=O)/C=C/c2ccc(SC)cc2)cc1 | 12.6 µM (inconclusive) |
| C=CCN1CCc2c(cc(O)c(O)c2Cl)[C@H](c2ccccc2)C1 | 20 µM (inconclusive) |
| O=C(C1=C(O)C(=O)N(Cc2ccco2)C1c1ccccc1)c1cccs1 (stereo unspecified) | 25.1 µM (inconclusive) |
| NC[C@@H]1O[C@H](c2ccccc2)Cc2c1ccc(O)c2O | 15.8 µM (inconclusive) |
| CC(C)CN1CCCC2(CCN(C(=O)c3cc(C(F)(F)F)cc(C(F)(F)F)c3)CC2)C1 | 12.6 µM (inconclusive) |
| Cc1nc(N)sc1CCN [AMTHAMINE] | 31.6 µM (inconclusive) |
| CCC(C)OC(=O)C1=C(C)NC(=O)CC1c1ccccc1OC (stereo unspecified) | 15.8 µM (inconclusive) |
| CC(=O)O[C@H]1CC[C@@]2(C)[C@@H](CC[C@H]3[C@H]2CC(=O)[C@]2(C)[C@@H]3C[C@@H](N3CC3)[C@H]2C(C)=O)C1 | 0.0398 µM (inconclusive) |

[ask] Please look at this molecule and report its AC50: O=S(=O)(c1ccccc1)N1CCC[C@@]2(CCN(Cc3ccccc3)C2)C1
[reply] 20 µM (inconclusive)

[ask] Please look at this molecule and report its AC50: CC(=O)O[C@H]1CC[C@@]2(C)C(=CC[C@@H]3[C@H]4CC[C@@H]([C@H](C)C(=O)O)[C@]4(C)CC[C@H]32)C1
[reply] 3.16 µM (inconclusive)

[ask] Please look at this molecule and report its AC50: NC(=O)OC[C@H](O)COc1ccc(Cl)cc1
[reply] 10 µM (inconclusive)

====

Assay System: Short transient receptor potential channel 4 (Mus musculus)
Sequence (Q9QUQ5 whole entry): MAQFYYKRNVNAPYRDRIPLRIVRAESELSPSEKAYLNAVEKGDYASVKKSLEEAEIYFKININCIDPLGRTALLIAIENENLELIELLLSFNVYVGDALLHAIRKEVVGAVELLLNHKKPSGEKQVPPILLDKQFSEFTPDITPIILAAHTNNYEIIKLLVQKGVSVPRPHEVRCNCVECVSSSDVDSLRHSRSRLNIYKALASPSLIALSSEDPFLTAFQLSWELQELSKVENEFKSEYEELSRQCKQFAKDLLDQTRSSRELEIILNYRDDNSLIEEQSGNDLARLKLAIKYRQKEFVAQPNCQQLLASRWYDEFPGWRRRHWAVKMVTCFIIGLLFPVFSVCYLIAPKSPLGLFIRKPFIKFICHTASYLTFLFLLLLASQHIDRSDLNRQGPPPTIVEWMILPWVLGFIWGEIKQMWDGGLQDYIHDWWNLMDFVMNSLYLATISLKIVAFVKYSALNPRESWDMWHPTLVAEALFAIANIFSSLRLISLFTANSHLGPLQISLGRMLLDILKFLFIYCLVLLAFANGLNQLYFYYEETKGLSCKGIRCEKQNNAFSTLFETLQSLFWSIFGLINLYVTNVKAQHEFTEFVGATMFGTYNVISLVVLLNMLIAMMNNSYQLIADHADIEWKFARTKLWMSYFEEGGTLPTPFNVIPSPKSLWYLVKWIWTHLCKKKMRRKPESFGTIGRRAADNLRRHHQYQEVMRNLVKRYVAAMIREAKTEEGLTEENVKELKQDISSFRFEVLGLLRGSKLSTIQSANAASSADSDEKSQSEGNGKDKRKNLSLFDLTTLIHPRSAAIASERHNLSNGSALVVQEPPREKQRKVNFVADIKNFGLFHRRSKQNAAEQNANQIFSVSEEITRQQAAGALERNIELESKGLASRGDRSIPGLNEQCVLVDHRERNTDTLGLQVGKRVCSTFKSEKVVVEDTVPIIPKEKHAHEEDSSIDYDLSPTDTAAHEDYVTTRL
Assay Comment: mouse TRPC4 channel activators, dose response, cell-based, HEK293 TRPC4/mu-opioid, Fluo-4 calcium (AID 434937)
Format: functional
Activity calls are given as the source filed them.
Quantity Name: EC50

Solved cases (3 shown):
| Molecule | Value Observed |
| --- | --- |
| CCN1CCN(c2ccc(S(=O)(=O)N3CCOCC3)cc2NC(=O)/C=C/c2ccc(OC)cc2OC)CC1 | 2990 nM (active) |
| CC(=O)NC(CC(=O)NCC(c1ccco1)N(C)C)c1ccccc1 (configuration not stated) | 53.3 nM (active) |
| COc1ccc(C(=O)C2CCCN(C3Cc4ccccc4C3)C2)cc1OC (configuration not stated) | 1680 nM (active) |

[ask] Please look at this molecule and report its EC50: CCCN(CCC)CCN=C(S)Nc1ccc2nc3n(c(=O)c2c1)CCCCC3
[reply] 299 nM (active)

[ask] Please look at this molecule and report its EC50: CN(C)CCCN(C(=O)c1ccc(Cl)s1)c1nc2cc3c(cc2s1)OCO3
[reply] 5960 nM (active)

[ask] Please look at this molecule and report its EC50: COc1ccc(F)cc1CN1CCN(C(=O)CCC(=O)Nc2nnc(C(C)C)s2)CC1
[reply] 841 nM (active)

[ask] Please look at this molecule and report its EC50: C=CCn1c(CCNC(=O)c2ccco2)nc2ccccc21
[reply] 1680 nM (active)

====

Item-by-item account of IC50
Assay System: Glucose-6-phosphate 1-dehydrogenase (Homo sapiens, UniProt P11413)
Sequence (P11413 whole entry): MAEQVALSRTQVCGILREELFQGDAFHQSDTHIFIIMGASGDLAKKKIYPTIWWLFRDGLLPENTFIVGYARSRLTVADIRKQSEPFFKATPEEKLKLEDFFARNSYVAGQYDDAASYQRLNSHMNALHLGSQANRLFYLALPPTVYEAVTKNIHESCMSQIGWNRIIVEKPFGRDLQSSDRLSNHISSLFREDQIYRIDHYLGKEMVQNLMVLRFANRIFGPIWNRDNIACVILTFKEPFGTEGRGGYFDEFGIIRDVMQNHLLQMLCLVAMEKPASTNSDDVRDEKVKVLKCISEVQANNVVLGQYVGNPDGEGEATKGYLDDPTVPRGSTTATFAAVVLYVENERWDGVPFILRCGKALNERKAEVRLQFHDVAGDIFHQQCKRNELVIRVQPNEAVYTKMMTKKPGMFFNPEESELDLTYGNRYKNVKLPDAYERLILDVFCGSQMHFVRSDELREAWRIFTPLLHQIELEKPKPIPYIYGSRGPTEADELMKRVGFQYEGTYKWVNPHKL
Assay Comment: human G6PD enzyme inhibitors, dose response, selectivity assay for P. falciparum G6PD inhibitor project, biochemical, fluorescence (AID 504792)
Type: functional
Activity calls are given as the source filed them.

Solved cases (4 shown):
| Smiles Entry | Value Observed |
| --- | --- |
| Cc1noc(C(=O)Nc2sc3c(c2C#N)CCC3)c1Cl | 47.5 µM (inactive) |
| Nn1c(SCC(=O)Nc2cccnc2Cl)nnc1-c1ccccc1 | > 80 µM (inactive) |
| COc1ccc(Nc2cc(C)c3c(O)cccc3n2)cc1 | 56.3 µM (inactive) |
| [O-][N+](=Cc1ccccc1)c1ccc(Cl)cc1 | 57 µM (inactive) |

[ask] Please look at this molecule and report its IC50: COc1ccc2c(c1)c(=Cc1ccc(N(C)C)cc1)c1cc(-c3ccccc3)[n+](C)n12
[reply] 74.7 µM (inactive)

[ask] Please look at this molecule and report its IC50: CCSc1nc2cc(S(=O)(=O)N3CCOCC3)ccc2o1
[reply] > 80 µM (inactive)
